Collected IC50 values appear next to each entry.
- ASSAYED_TARGET: CDK2/Cyclin E (Homo sapiens, UniProt P24941)
- Construct: made in house; host or cells: Sf9 insect cells, baculoviral infection
- ASSAY_NOTES: Kinase inhibition assay with [γ-33P]ATP
- Format: biochemical
- CONDITION_DETAILS: histone H1, 15 μM ATP; read-out: IC50 values (μM) CDK2
The reply should contain only the number, in µM.

For orientation, consider the following solved cases.
molecule="c1cc(Nc2nc(N3CCCCC3)nc3c2ncn3C2CCCC2)ccc1CN1CCOCC1 [Compound 271]" assayed_target="CDK2/Cyclin E (Homo sapiens, UniProt P24941)" observed_result=1.98
molecule="NC(=O)CCCCNc1nc(Nc2ccc(N3CC4(CNC4)C3)cc2)c2ncn(C3CCCC3)c2n1 [Compound 156]" assayed_target="CDK2/Cyclin E (Homo sapiens, UniProt P24941)" observed_result=0.006
molecule="NCCNc1nc(Nc2ccc(CN3CCNCC3)cc2)c2ncn(C3CCCC3)c2n1 [Compound 14]" assayed_target="CDK2/Cyclin E (Homo sapiens, UniProt P24941)" observed_result=0.004

Let's switch to this molecule now.
Supply reported IC50 belonging to this molecule: NCCCCCCNc1nc(Nc2ccc(CN3CCOCC3)cc2)c2ncn(C3CCCC3)c2n1 [Compound 38]
3.56

====

- ASSAYED_TARGET: CDK2/Cyclin E (Homo sapiens, UniProt P24941)
- Construct: made in house; host or cells: Sf9 insect cells, baculoviral infection
- ASSAY_NOTES: Kinase inhibition assay with [γ-33P]ATP
- Format: biochemical
- CONDITION_DETAILS: histone H1, 15 μM ATP; read-out: IC50 values (μM) CDK2
Collected IC50 values appear next to each entry.

compound="NCCCCCNc1nc(Nc2ccc(CN3CCOCC3)cc2)c2ncn(C3CCCC3)c2n1 [Compound 267]" observed_result="2.04 µM"
compound="CN(C)CCCCNc1nc(Nc2ccc(C(=O)N3CCN(C)CC3)nc2)c2ncn(C3CCCC3)c2n1 [Compound 185]" observed_result="0.003 µM"
compound="NC1CCC(Nc2nc(Nc3ccc(N4CCOCC4)nc3)c3ncn(C4CCCC4)c3n2)CC1 (stereo not drawn) [Compound 269]" observed_result="0.008 µM"
compound="NC1CCC(Nc2nc(Nc3ccc(CN4CCOCC4)cc3)c3ncn(C4CCCC4)c3n2)CC1 (stereo not drawn) [Compound 264]" observed_result="0.007 µM"

Supply reported IC50 belonging to this compound: NCCCCNc1nc(Nc2ccc(N3CCOCC3)cc2)c2ncn(C3CCCC3)c2n1 [Compound 265]
0.642 µM

Supply reported IC50 belonging to this compound: OCCCCNc1nc(Nc2ccc(CN3CCOCC3)cc2)c2ncn(C3CCCC3)c2n1 [Compound 276]
1.8 µM

Hello, the source for this data is patent US11028087B2, in case you need it.
